Source listed as ChEMBL document CHEMBL2375351.

- Method Summary: Half life of the compound in DMSO at 250 uM measured up to 48 hrs by reverse phase HPLC analysis
- Assay type: physicochemical
Metric: half-life at 250 µM

Reported half-life at 250 µM, compound COc1ccc(CCN2CN=C(SCc3ccc(Cl)cc3)NC2)cc1OC : ____
10.7 days

====

- Method Summary: Half life of the compound in acetate buffer at pH 4 at 250 uM measured up to 48 hrs by reverse phase HPLC analysis
- Assay type: physicochemical
Metric: half-life at 250 µM (h)
Only the number, expressed in h, is required.

Reported half-life at 250 µM, compound COc1ccc(CCN2CN=C(SCc3ccc(Cl)cc3)NC2)cc1OC : ____
4

====

- Test system: Pseudomonas aeruginosa
- Method Summary: Antibacterial activity against Pseudomonas aeruginosa PAO1 assessed as growth inhibition after 16 hrs
- Assay type: functional
- Test Context: PAO1, 16 h
Values of MIC strictly less than 100 µg/mL map to 1, and values of at least 100 µg/mL map to 0.

Solved cases (2 shown):
COc1ccc(CSC(=N)N)cc1; 1
C/N=C(\NC)SCc1ccc(Cl)c(Cl)c1; 0

Below: the item to evaluate.
Is MIC of N=C(N)CCc1ccc(Cl)cc1 strictly below 100 µg/mL?
0

====

- Method Summary: Binding affinity to Escherichia coli LolA
Metric: Kd (µM)
Only the number, expressed in µM, is required.

Reported Kd, compound COc1ccc(CCN2CN=C(SCc3ccc(Cl)cc3)NC2)cc1OC : ____
8

====

# MIC annotations
- Tested on: Bacillus subtilis
- Method Summary: Antibacterial activity against Bacillus subtilis 168 assessed as growth inhibition after 16 hrs
- Assay type: functional
- Test Context: subsp. subtilis str. 168, 16 h

As a guide, the following entries are already answered.
N=C(N)SCCCc1ccc(Cl)cc1; > 256 µg/mL
N=C(N)SCc1ccc(F)cc1; > 256 µg/mL
N=C(N)Sc1ccc(Cl)cc1; 4 µg/mL
N=C(N)SCc1cccc(Cl)c1; > 256 µg/mL
N=C(N)SCc1ccc(Cl)cc1Cl; > 256 µg/mL

Reported MIC, compound COc1ccc(CSC(=N)N)cc1 : ____
> 256 µg/mL

Okay, and N=C(N)SCc1ccc(Br)cc1 ?
> 256 µg/mL

Okay, and COc1ccc(CCN2CN=C(SCc3ccc(Cl)cc3)NC2)cc1OC ?
256 µg/mL

Okay, and N=C(N)OCc1ccc(Cl)cc1 ?
> 256 µg/mL

Okay, and N=C(N)SCc1ccc(Cl)cc1 ?
> 256 µg/mL

Okay, and N=C(N)NCc1ccc(Cl)cc1 ?
> 256 µg/mL

Okay, and N=C(N)SCc1ccccc1 [BENZYL CARBAMIMIDOTHIOATE] ?
> 256 µg/mL

Okay, and N=C(N)c1ccc(Cl)cc1 ?
4 µg/mL

Okay, and N=C(N)CCc1ccc(Cl)cc1 ?
> 256 µg/mL

Okay, and N=C(N)SCc1ccc([N+](=O)[O-])cc1 ?
> 256 µg/mL

====

- System: Pseudomonas aeruginosa
- Method Summary: Antibacterial activity against Pseudomonas aeruginosa PAO1 assessed as growth inhibition after 16 hrs
- Type: functional
- Test Context: PAO1, 16 h
# MIC annotations
Only the number, expressed in µg/mL, is required.

N=C(N)CSCc1ccc(Cl)cc1; 128
COc1ccc(CCN2CN=C(SCc3ccc(Cl)cc3)NC2)cc1OC; 32

Reported MIC, compound N=C(N)SCc1ccc(Cl)cc1 : ____
16

Okay, and N=C(N)SCc1ccc(I)cc1 ?
32

Okay, and N=C(N)SCCCc1ccc(Cl)cc1 ?
128

Okay, and N=C(N)SCc1ccccc1 [BENZYL CARBAMIMIDOTHIOATE] ?
32

Okay, and N=C(N)NCc1ccc(Cl)cc1 ?
128

Okay, and N=C(N)SCc1ccc(Cl)cc1Cl ?
32

Okay, and N=C(N)SCc1ccc(Br)cc1 ?
16

Okay, and N=C(N)SCCc1ccc(Cl)cc1 ?
128

Okay, and N=C(N)SCc1ccccc1Cl ?
64

Okay, and N=C(N)OCc1ccc(Cl)cc1 ?
32
